Data credit: patent US9834575B2

- experimentalDetails: Exposure (plasma concentration by LC-MS/MS) of NDGA after oral administration in male CD-1 mice at 100 mg/kg
- Type: in vivo
- reportedConditions: male, CD-1, mouse, plasma, po, 100 mg/kg, PO 100 mg/kg, 0.5% NaCMC in DI water, time point 0.167 hr, group average
measurementName: concentration at 0.167 h (ng/mL)
Numbers only, in ng/mL.

Entry under review: CC(Cc1ccc(O)c(O)c1)C(C)Cc1ccc(O)c(O)c1 (stereo not shown) [NDGA, nordihydroguaiaretic acid] . Reported concentration at 0.167 h?
70.8

====

- experimentalDetails: Exposure (plasma concentration by LC-MS/MS) of NDGA after oral administration in male CD-1 mice at 100 mg/kg
- Assay type: in vivo
- reportedConditions: male, CD-1, mouse, plasma, po, 100 mg/kg, PO 100 mg/kg, 0.5% NaCMC in DI water, time point 2.0 hr, group average
measurementName: concentration at 2 h (ng/mL)
Answers are plain numbers, in ng/mL.

Request the reported concentration at 2 h associated with CC(Cc1ccc(O)c(O)c1)C(C)Cc1ccc(O)c(O)c1 (stereo not shown) [NDGA, nordihydroguaiaretic acid]
1.83
